Tested on: Tobacco mosaic virus
Assay: In vivo antiviral activity against Tobacco mosaic virus strain U1 (TMV) infected left side of Nicotiana glutinosa leaves assessed as decrease in local lesion numbers at 20 uM co-incubated with virus for 30 min before inoculation onto leaves measured at 3-4 days after viral challenge by half-leaf method
Assay type: functional

>  <compound>
CC1=CC(=O)[C@@H](O)[C@]2(C)[C@H]3[C@@H](O)[C@H](O)[C@]4(C)OC[C@@]35[C@@H](C[C@@H]12)OC(=O)[C@H](O)[C@]54O

>  <scaleUnit>
%

>  <inhibition in vivo at 20 µM>
78.6

$$$$
>  <compound>
COC(=O)[C@]12OC[C@]34[C@H]([C@@H](O)[C@@H]1O)[C@@]1(C)CC(=O)[C@H](O)[C@@H](C)[C@@H]1C[C@H]3OC(=O)[C@H](OC(=O)/C=C(\C)C(C)(C)OC(C)=O)[C@@H]24 [JAVANICOLIDE F]

>  <scaleUnit>
%

>  <inhibition in vivo at 20 µM>
52.1

$$$$
>  <compound>
COC(=O)[C@]12OC[C@]34[C@H]([C@@H](O)[C@@H]1O)[C@@]1(C)CC(=O)C(O[C@@H]5O[C@H](CO)[C@@H](O)[C@H](O)[C@H]5O)=C(C)[C@@H]1C[C@H]3OC(=O)[C@H](OC(=O)/C=C(\C)C(C)(C)O)[C@@H]24 [Yadanzioside L]

>  <scaleUnit>
%

>  <inhibition in vivo at 20 µM>
73.8

$$$$
>  <compound>
COC(=O)[C@]12OC[C@]34[C@H]([C@@H](O)[C@@H]1O)[C@@]1(C)CC(=O)C(O)=C(C)[C@@H]1C[C@H]3OC(=O)[C@H](OC(=O)C=C(C)C)[C@@H]24

>  <scaleUnit>
%

>  <inhibition in vivo at 20 µM>
88.9

$$$$
